These data points were gathered from PubChem BioAssay AID1159580.

Test: chemical genetic growth profiling, strain panel (AID 1159580);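 further: tested at 20 µM; growth read once vehicle control cultures reached saturation at 30 °C; 1 = growth at the plate median or of vehicle wells; lower values mean less growth of the strain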
Details: S. cerevisiae deletion strains, growth OD, locus YJL164C, strain tpk1, active compounds read low
The whole screen tested about 5,500 compounds, of which about 2,000 (36%) were called active. Not shown: some 18% with an inconclusive outcome. Some of the results follow. Where a SMILES comes first, the peptide text is derived from it.
measurement-label: normalized growth

Query: I am curious: what normalized growth value has been reported for CN1C[C@H](C(=O)N[C@]2(C)O[C@@]3(O)[C@@H]4CCCN4C(=O)[C@H](Cc4ccccc4)N3C2=O)C[C@@H]2c3cccc4[nH]cc(c34)C[C@H]21 ?
Reply: 1.02 (inactive)

Query: Could you tell me which normalized growth is on file for CC/C(=C(/CC)c1ccc(O)cc1)c1ccc(O)cc1 ?
Reply: 0.944 (inactive)

Query: normalized growth for O=c1ccc2cc(OC3OC(CO)C(O)C(O)C3O)c(O)cc2o1 (stereo unspecified) ?
Reply: 0.947 (inactive)

Query: Need normalized growth of CC(C)c1c(O)ccc2c1CCC1C(C)(C)CCC[C@]21C (stereo partly specified) , thanks.
Reply: 0.197 (active)

Query: What does the data say about its normalized growth? Entry: C=C(C)[C@H]1COc2cc3oc(=O)ccc3cc2O1
Reply: 0.871 (active)

Query: Which measured normalized growth value corresponds to NS(=O)(=O)c1cc(C2(O)NC(=O)c3ccccc32)ccc1Cl (stereo unspecified) ?
Reply: 0.981 (inactive)

Query: Item O=c1c(O)c(-c2ccc(O)cc2O)oc2cc(O)cc(O)c12 has what recorded normalized growth?
Reply: 0.975 (inactive)

Query: Give the measured normalized growth of CCC(N)C(O)c1ccc(O)c(O)c1 (stereo unspecified) .
Reply: 0.994 (inactive)

Query: Value lookup for normalized growth; key = CCc1cc(C(N)=S)ccn1
Reply: 1.02 (inactive)

Query: Param item = CCOCN(C(=O)CCl)c1c(C)cccc1CC ; retrieve measured normalized growth.
Reply: 0.994 (inactive)

Query: May I ask what normalized growth has been recorded for COC(=O)[C@H](Cc1ccccc1)NC(=O)[C@@H](N)CC(=O)O (H-Asp-Phe-OMe) ?
Reply: 0.999 (inactive)

* * *

Test: chemical genetic growth profiling, strain panel (AID 1159580);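 further: tested at 20 µM; growth read once vehicle control cultures reached saturation at 30 °C; 1 = growth at the plate median or of vehicle wells; lower values mean less growth of the strain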
Conditions: S. cerevisiae deletion strains, growth OD, locus YNL161W, strain CBK1, active compounds read low
Among all 5,500 compounds or so, about 2,000 (36%) were called active. Roughly 18% stayed inconclusive and do not appear here. This is one part of the list.
Kindly state normalized growth for each of the entries shown.
Answer using only a numeral; do not append any unit.

Query: Fill in the blank: the reported normalized growth of O=C1Nc2ccccc2/C1=C\c1c(Cl)cccc1Cl is ____.
Reply: 0.968

Query: normalized growth; subject: CC(C)(C)NC(=S)N/N=C\c1ccccc1O
Reply: 0.955

Query: # normalized growth lookup, item O=C1Nc2ccccc2/C1=C/c1ccc(Oc2ccccc2)nc1
Reply: 0.976

Query: Request the reported normalized growth associated with COCCCNC(=S)N/N=C\c1cc(Cl)cc(Cl)c1O
Reply: 0.959

Query: Need normalized growth, item O=C(Nc1ccccc1)Nc1ccc(Cl)cc1[N+](=O)[O-]
Reply: 0.976

Query: GET /values?readout=normalized growth&item= CC(NC(=S)N/N=C\c1ccccc1O)c1ccccc1 (configuration not stated)
Reply: 0.984

Query: I would be grateful if you could share the reported normalized growth for O=[N+]([O-])c1cc(Cl)cc([N+](=O)[O-])c1Nc1ccccc1 .
Reply: 0.92

Query: # normalized growth lookup, item COCCCNC(=S)N/N=C\c1cc(Br)ccc1O
Reply: 0.962

Query: // normalized growth lookup, key: O=C1Nc2ccccc2/C1=C\c1ccc(Cl)cc1
Reply: 0.948

Query: Would you kindly share the measured normalized growth for Cc1nnc2n1N=C(c1ccc(CC(C)C)cc1)C(C)S2 (configuration not stated) ?
Reply: 0.977

Query: Reported normalized growth for Cc1ccc(C)n1-c1ccc(/C=C2/C(=O)Nc3ccccc32)cc1 : what is it?
Reply: 0.975

Query: Reported normalized growth, compound CC(C)(C)C(=O)NC(=S)N/N=C\c1cc(Cl)cc(Cl)c1O : ____
Reply: 0.932
